Subject of test: human muscarinic M4 receptor (Homo sapiens, UniProt P08173)
Construct: expressed in transfected cells
Sequence (P08173 whole entry): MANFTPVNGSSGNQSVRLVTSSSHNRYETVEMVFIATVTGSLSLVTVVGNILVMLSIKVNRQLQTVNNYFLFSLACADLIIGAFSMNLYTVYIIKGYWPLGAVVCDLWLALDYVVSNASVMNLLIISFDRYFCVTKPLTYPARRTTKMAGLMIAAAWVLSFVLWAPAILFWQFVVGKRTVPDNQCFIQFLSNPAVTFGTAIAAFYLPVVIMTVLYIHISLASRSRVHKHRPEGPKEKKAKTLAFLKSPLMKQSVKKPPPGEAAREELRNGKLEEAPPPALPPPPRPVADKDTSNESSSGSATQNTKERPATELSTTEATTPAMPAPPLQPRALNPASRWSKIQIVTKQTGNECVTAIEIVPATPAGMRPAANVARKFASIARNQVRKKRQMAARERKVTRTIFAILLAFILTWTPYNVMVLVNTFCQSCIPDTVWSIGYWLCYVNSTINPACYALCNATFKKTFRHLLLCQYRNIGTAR
Test name: Alphascreen Surefire phospho-ERK1/2 functional assay, M4
Assay type: cell-based
Test settings: CHO, read-out: % Emax cf. ACh, M4
Quick list: Emax per entry.
Kindly provide the numeric value in % only, without the unit symbol.

Compound	Measure unit	Reported measurement
CCOC(=O)N1CCC2(CC(N3CCC(n4cccn4)CC3)C2)C1 (single isomer, unassigned) [1-33 Isomer 2]	%	118
CCOC(=O)N1CCC2(CC(N3CCC(O)(c4ncc[nH]4)CC3)C2)C1 (single isomer, unassigned) [1-37 Isomer 2]	%	126
CCOC(=O)N1CCC2(CC(N3CCC(OC)(c4nccn4C)CC3)C2)C1 (single isomer, unassigned) [1-40 Isomer 2]	%	50
CCOC(=O)N1CCC2(CC(N3CCC(OC)(c4ncc[nH]4)CC3)C2)C1 (single isomer, unassigned) [1-38 Isomer 2]	%	98
CCOC(=O)N1CCC2(CC(N3CCC(O)(c4nccn4C)CC3)C2)C1 (single isomer, unassigned) [1-39 Isomer 2]	%	97

# next compound below
Using the record for CCOC(=O)N1CCC2(CC(N3CCC(C)(c4nc(C)no4)CC3)C2)C1 (single isomer, unassigned) [1-41 Isomer 2] , state its measured Emax.
35

###

Subject of test: human muscarinic M2 receptor (Homo sapiens, UniProt P08172)
Sequence (P08172 1-466): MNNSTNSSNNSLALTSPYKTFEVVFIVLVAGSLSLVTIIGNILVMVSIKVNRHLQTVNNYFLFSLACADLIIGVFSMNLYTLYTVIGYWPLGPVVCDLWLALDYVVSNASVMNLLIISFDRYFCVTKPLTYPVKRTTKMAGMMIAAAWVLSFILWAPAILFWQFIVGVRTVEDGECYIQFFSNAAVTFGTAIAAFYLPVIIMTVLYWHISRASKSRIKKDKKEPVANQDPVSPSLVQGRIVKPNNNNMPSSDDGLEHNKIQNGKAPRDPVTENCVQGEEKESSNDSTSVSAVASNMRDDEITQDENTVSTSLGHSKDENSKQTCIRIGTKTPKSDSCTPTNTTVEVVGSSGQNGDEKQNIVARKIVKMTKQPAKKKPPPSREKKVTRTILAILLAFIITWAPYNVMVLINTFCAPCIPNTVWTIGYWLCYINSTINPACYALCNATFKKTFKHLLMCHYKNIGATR
Test name: Alphascreen Surefire phospho-ERK1/2 functional assay, M2
Test settings: CHO, read-out: % Emax cf. ACh, M2, CHO cells stably expressing human M2; relative to ACh
# reported Emax; entries follow
Numbers only; they are read as %.

Compound	Measure unit	Emax
CCOC(=O)N1CCC2(CC(N3CCC([C@@H]4CCCN4C(=O)NC4(C)COC4)CC3)C2)C1 (single isomer, unassigned) [2-36 Isomer 2]	%	3
CCOC(=O)N1CCC2(CC(N3CCC(N4CCC[C@@H]4C(F)F)CC3)C2)C1 (single isomer, unassigned) [2-103 Isomer 2]	%	4

Kindly indicate its recorded Emax. Item: CCOC(=O)N1CCC2(CC(N3CCC(c4nccc(N)n4)CC3)C2)C1 (single isomer, unassigned) [3-9 Isomer 2]
2

###

Subject of test: UniProt:P20309
Sequence (P20309 whole entry): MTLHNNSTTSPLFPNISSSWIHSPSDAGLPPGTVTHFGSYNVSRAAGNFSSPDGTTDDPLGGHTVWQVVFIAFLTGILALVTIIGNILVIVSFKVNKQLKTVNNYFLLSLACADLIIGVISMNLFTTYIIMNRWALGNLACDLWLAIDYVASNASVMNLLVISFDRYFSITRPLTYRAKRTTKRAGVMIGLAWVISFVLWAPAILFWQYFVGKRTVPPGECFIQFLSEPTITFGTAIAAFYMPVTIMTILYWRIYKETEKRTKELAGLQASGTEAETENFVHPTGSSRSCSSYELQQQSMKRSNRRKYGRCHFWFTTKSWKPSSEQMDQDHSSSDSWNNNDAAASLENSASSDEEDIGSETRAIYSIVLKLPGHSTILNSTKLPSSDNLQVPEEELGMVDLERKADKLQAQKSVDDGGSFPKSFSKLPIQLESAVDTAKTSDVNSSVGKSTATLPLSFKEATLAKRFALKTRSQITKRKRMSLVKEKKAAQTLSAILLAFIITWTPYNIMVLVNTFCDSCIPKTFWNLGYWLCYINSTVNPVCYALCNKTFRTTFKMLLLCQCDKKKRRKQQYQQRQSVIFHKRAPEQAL
Test name: Alphascreen Surefire phospho-ERK1/2 functional assay, M3
Test settings: CHO, read-out: % Emax cf. ACh, M3, CHO cells stably expressing human M3; relative to ACh
Kindly apply the following: y if Emax is less than 5%, n in every other case.

The following compounds have reported results that may help.
Compound	Subject of test	Assigned category
CCOC(=O)N1CCC2(CC(N3CCC(c4ccnc(N)n4)CC3)C2)C1 (single isomer, unassigned) [3-8 Isomer 2]	UniProt:P20309	y
CCOC(=O)N1CCC2(CC(N3CCC([C@H]4CCCN4C(=O)NC)CC3)C2)C1 (single isomer, unassigned) [2-18 Isomer 2]	UniProt:P20309	y

Quick check: does CCOC(=O)N1CCC2(CC(N3CCC(C4CCCN4C(=O)NOC)CC3)C2)C1 (single isomer, unassigned) [2-24 Isomer 2] have Emax under 5%?
n

Dear reviewer, please state whether CCOC(=O)N1CCC2(CC(N3CCC(C4CCCN4C(C)=O)CC3)C2)C1 (single isomer, unassigned) [2-3 Isomer 2] has Emax strictly beneath 5%.
y

Lab note: confirm whether the reported Emax for this compound is below 5%, equality not counting. compound: CCOC(=O)N1CCC2(CC(N3CCC([C@@H]4CCCN4CCF)CC3)C2)C1 (single isomer, unassigned) [2-68 Isomer 2]
n

###

Subject of test: human muscarinic M1 receptor (Homo sapiens)
Sequence (P11229 1-460): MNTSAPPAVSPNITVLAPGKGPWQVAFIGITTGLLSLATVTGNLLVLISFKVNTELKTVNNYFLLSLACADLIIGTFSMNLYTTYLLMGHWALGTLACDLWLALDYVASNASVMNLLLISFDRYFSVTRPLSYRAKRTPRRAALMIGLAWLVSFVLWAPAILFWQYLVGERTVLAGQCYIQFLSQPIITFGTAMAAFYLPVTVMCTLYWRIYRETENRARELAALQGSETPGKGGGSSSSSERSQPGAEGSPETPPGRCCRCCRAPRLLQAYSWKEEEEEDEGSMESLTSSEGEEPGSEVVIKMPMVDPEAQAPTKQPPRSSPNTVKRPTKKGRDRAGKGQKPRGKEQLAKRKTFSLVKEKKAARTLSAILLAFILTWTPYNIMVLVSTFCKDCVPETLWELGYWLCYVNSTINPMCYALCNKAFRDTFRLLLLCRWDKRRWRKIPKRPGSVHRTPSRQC
Test name: Alphascreen Surefire phospho-ERK1/2 functional assay, M1
Assay type: cell-based
Test settings: CHO, read-out: % Emax cf. ACh, M1, CHO cells stably expressing human M1; relative to ACh
Classify: TRUE when Emax is strictly less than 30%; FALSE when Emax is not.

Examples from the recorded data:
Compound	Subject of test	Assigned category
CCOC(=O)N1CCC2(CC(N3CCC(N4CC5CC5C4)CC3)C2)C1 (single isomer, unassigned) [2-105 Isomer 2]	human muscarinic M1 receptor (Homo sapiens)	TRUE
CCOC(=O)N1CCC2(CC(N3CCC([C@@H]4CCCN4c4ncccn4)CC3)C2)C1 (single isomer, unassigned) [2-81 Isomer 2]	human muscarinic M1 receptor (Homo sapiens)	TRUE
CCOC(=O)N1CCC2(CC(N3CCC([C@@H]4CCCN4CC(=O)N(C)C)CC3)C2)C1 (single isomer, unassigned) [2-73 Isomer 2]	human muscarinic M1 receptor (Homo sapiens)	TRUE
CCOC(=O)N1CCC2(CC(N3CCC([C@H]4CCCN4C(=O)OC)CC3)C2)C1 (single isomer, unassigned) [2-13 Isomer 2]	human muscarinic M1 receptor (Homo sapiens)	FALSE
CCOC(=O)N1CCC2(CC(N3CCC([C@@H]4CCCN4C(=O)NC4COC4)CC3)C2)C1 (single isomer, unassigned) [2-56 Isomer 2]	human muscarinic M1 receptor (Homo sapiens)	FALSE

Kindly consider the entry below.
Record CCOC(=O)N1CCC2(CC(N3CCC(C4CCCN4)CC3)C2)C1 (single isomer, unassigned) [2-1 Isomer 2] : is its Emax strictly below 30%?
TRUE

###

Subject of test: human muscarinic M1 receptor (Homo sapiens, UniProt P11229)
Test name: Alphascreen Surefire phospho-ERK1/2 functional assay, M1
Format: cell-based
Test settings: CHO cells stably expressing human M1; relative to ACh
Observation type: % Emax cf. ACh, M1 (%)
Numbers only here, please. The scale is %.

Examples with answers:
Molecule	% Emax cf. ACh, M1 (%)
CCOC(=O)N1CCC2(CC(N3CCC([C@@H]4CCCN4C(=O)NCc4ccccn4)CC3)C2)C1 (single isomer, unassigned) [2-54 Isomer 1]	1
CCOC(=O)N1CCC2(CC(N3CCC([C@@H]4CCCN4C(=O)N(C)OC)CC3)C2)C1 (single isomer, unassigned) [2-34 Isomer 2]	56
CCOC(=O)N1CCC2(CC(N3CCC([C@@H]4CCCN4C(=O)NOC)CC3)C2)C1 (single isomer, unassigned) [2-33 Isomer 1]	86
CCOC(=O)N1CCC2(CC(N3CCC(N4CCCC4c4nnnn4C)CC3)C2)C1 (single isomer, unassigned) [2-130 Isomer 2]	11
CCOC(=O)N1CCC2(CC(N3CCC([C@@H]4CCCN4C(=O)NCc4ccccn4)CC3)C2)C1 (single isomer, unassigned) [2-54 Isomer 2]	86
CCOC(=O)N1CCC2(CC(N3CCC(n4cc(C)cn4)CC3)C2)C1 (single isomer, unassigned) [1-34 Isomer 1]	49
CCOC(=O)N1CCC2(CC(N3CCC(C4c5ccccc5CN4C(=O)NC)CC3)C2)C1 (single isomer, unassigned) [2-76 Isomer 2]	88
CCOC(=O)N1CCC2(CC(N3CCC([C@@H]4CCCN4CCC(F)(F)F)CC3)C2)C1 (single isomer, unassigned) [2-70 Isomer 2]	93
CCOC(=O)N1CCC2(CC(N3CCC(C4CCCNC4=O)CC3)C2)C1 (single isomer, unassigned) [4-1 Isomer 4]	58
CCOC(=O)N1CCC2(CC(N3CCC(N4CCCC4c4nnnn4C)CC3)C2)C1 (single isomer, unassigned) [2-130 Isomer 1]	42

Provide one value: measured % Emax cf. ACh, M1 of CCOC(=O)N1CCC2(CC(N3CCC(C#N)(c4ccccn4)CC3)C2)C1 (single isomer, unassigned; isomer 1) [3-10 Isomer 1]
42

Give recorded % Emax cf. ACh, M1. CCOC(=O)N1CCC2(CC(N3CCC([C@@H]4CCCN4C(=O)N(C)CC(F)(F)F)CC3)C2)C1 (single isomer, unassigned) [2-55 Isomer 2]
7

Please give the documented % Emax cf. ACh, M1 of CCOC(=O)N1CCC2(CC(N3CCC(c4c(C)cc[nH]c4=O)CC3)C2)C1 (single isomer, unassigned) [3-14 Isomer 2]
29

Note down % Emax cf. ACh, M1 recorded for CCOC(=O)N1CCC2(CC(N3CCC([C@@H]4CCCN4C(=O)N4Cc5cccnc5C4)CC3)C2)C1 (single isomer, unassigned) [2-133 Isomer 1]
37

# return recorded % Emax cf. ACh, M1 for input CCOC(=O)N1CCC2(CC(N3CCC([C@@H]4CCCN4CCC(F)(F)F)CC3)C2)C1 (single isomer, unassigned) [2-70 Isomer 1]
37

Fill in % Emax cf. ACh, M1 for record CCOC(=O)N1CCC2(CC(N3CCC(C#N)(c4ccccn4)CC3)C2)C1 (single isomer, unassigned; isomer 2) [3-10 Isomer 2]
90

Consider the molecule CCOC(=O)N1CCC2(CC(N3CCC([C@@H]4CCCN4C(=O)NOC)CC3)C2)C1 (single isomer, unassigned) [2-33 Isomer 2] . State its measured % Emax cf. ACh, M1.
4

Respond only with % Emax cf. ACh, M1 recorded for CCOC(=O)N1CCC2(CC(N3CCC(N4CC(F)(F)C[C@@H]4C(C)O)CC3)C2)C1 (single isomer, unassigned) [2-109 Isomer 4]
42

Please give the documented % Emax cf. ACh, M1 of CCOC(=O)N1CCC2(CC(N3CCC(c4c(C)cc[nH]c4=O)CC3)C2)C1 (single isomer, unassigned) [3-14 Isomer 1]
65

Specify measured % Emax cf. ACh, M1 for CCOC(=O)N1CCC2(CC(N3CCC([C@@H]4CCCN4C(=O)N(C)CC(F)(F)F)CC3)C2)C1 (single isomer, unassigned) [2-55 Isomer 1] .
15

Give the reported value of % Emax cf. ACh, M1 for this record: CCOC(=O)N1CCC2(CC(N3CCC(n4cc(C)cn4)CC3)C2)C1 (single isomer, unassigned) [1-34 Isomer 2]
130

Identify measured % Emax cf. ACh, M1 associated with CCOC(=O)N1CCC2(CC(N3CCC(C4CCCNC4=O)CC3)C2)C1 (single isomer, unassigned) [4-1 Isomer 2]
10

// fetch % Emax cf. ACh, M1 given entry CCOC(=O)N1CCC2(CC(N3CCC([C@@H]4CCCN4C(=O)N4Cc5cccnc5C4)CC3)C2)C1 (single isomer, unassigned) [2-133 Isomer 2]
69
